system_under_test: 5-HT2A-2C
test_method_notes: NIMH-PDSP binding affinity panel
test_settings: read-out: affinity
property_name: Ki

> print(dat)
                       smiles.string  test.result
1  COc1ccc(N(C)c2nc(C)nc3ccccc23)cc1      > 10 µM

----------
system_under_test: A (adenosine)
test_method_notes: NIMH-PDSP binding affinity panel
test_settings: read-out: affinity
property_name: Ki

> print(dat)
                       smiles.string  system.under.test  property.name  test.result
1  COc1ccc(N(C)c2nc(C)nc3ccccc23)cc1      A (adenosine)             Ki      > 10 µM

----------
system_under_test: Ca+ channel
test_method_notes: NIMH-PDSP binding affinity panel
test_settings: read-out: affinity
property_name: Ki

> print(dat)
                                   compound  property.name  test.result
1  COc1ccc(N(C)c2nc(C)nc3ccccc23)cc1 [MPC-6827]             Ki      > 10 µM

----------
system_under_test: UniProt:P23975
Sequence (P23975 whole entry): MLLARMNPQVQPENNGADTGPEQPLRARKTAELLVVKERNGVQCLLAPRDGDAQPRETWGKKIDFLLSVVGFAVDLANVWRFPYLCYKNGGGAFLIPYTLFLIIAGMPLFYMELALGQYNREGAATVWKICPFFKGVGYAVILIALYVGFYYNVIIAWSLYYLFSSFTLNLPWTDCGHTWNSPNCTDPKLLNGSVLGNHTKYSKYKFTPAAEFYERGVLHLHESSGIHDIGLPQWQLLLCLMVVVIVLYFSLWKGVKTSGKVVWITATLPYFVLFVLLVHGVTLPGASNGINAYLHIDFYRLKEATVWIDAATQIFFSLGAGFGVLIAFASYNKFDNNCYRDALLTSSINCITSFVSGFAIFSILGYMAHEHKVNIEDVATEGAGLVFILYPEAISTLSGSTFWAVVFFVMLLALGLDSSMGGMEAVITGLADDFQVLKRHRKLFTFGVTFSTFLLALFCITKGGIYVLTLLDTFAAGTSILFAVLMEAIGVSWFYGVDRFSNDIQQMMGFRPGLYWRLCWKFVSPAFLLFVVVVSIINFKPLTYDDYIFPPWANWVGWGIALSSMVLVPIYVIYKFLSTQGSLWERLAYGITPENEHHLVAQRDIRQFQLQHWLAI
pKi: −log10 of the molar value.
property_name: pKi

> print(dat)
                                   molecule  system.under.test  test.result
1  COc1ccc(N(C)c2nc(C)nc3ccccc23)cc1 [MPC-6827]     UniProt:P23975       < 5.00

----------
system_under_test: BZP (benzodiazepine)
test_method_notes: NIMH-PDSP binding affinity panel
test_settings: read-out: affinity
pKi: −log10 of the molar value.
property_name: pKi

> print(dat)
                       smiles.string     system.under.test  test.result
1  COc1ccc(N(C)c2nc(C)nc3ccccc23)cc1  BZP (benzodiazepine)       < 5.00

----------
system_under_test: 5-HT1A-1E
test_method_notes: NIMH-PDSP binding affinity panel
test_settings: read-out: affinity
pKi: −log10 of the molar value.
property_name: pKi

> print(dat)
                                   compound  test.result
1  COc1ccc(N(C)c2nc(C)nc3ccccc23)cc1 [MPC-6827]       < 5.00

----------
system_under_test: AMPA
test_method_notes: NIMH-PDSP binding affinity panel
test_settings: read-out: affinity
property_name: Ki

> print(dat)
                       smiles.string  test.result
1  COc1ccc(N(C)c2nc(C)nc3ccccc23)cc1      > 10 µM

----------
system_under_test: σ2 (Homo sapiens, UniProt Q5BJF2)
Sequence (Q5BJF2 whole entry): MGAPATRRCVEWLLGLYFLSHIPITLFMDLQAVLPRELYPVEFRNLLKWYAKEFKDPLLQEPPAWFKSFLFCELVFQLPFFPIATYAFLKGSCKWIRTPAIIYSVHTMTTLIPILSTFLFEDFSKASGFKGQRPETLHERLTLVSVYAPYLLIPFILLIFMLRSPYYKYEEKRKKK
property_name: Ki

> print(dat)
                       smiles.string                  system.under.test  test.result
1  COc1ccc(N(C)c2nc(C)nc3ccccc23)cc1  σ2 (Homo sapiens, UniProt Q5BJF2)      > 10 µM

----------
system_under_test: 5-HT3-7
test_method_notes: NIMH-PDSP binding affinity panel
test_settings: read-out: affinity
pKi: −log10 of the molar value.
property_name: pKi

> print(dat)
                                   molecule  test.result
1  COc1ccc(N(C)c2nc(C)nc3ccccc23)cc1 [MPC-6827]       < 5.00

----------
system_under_test: DAT (Homo sapiens, UniProt Q01959)
Sequence (Q01959 whole entry, species assumed): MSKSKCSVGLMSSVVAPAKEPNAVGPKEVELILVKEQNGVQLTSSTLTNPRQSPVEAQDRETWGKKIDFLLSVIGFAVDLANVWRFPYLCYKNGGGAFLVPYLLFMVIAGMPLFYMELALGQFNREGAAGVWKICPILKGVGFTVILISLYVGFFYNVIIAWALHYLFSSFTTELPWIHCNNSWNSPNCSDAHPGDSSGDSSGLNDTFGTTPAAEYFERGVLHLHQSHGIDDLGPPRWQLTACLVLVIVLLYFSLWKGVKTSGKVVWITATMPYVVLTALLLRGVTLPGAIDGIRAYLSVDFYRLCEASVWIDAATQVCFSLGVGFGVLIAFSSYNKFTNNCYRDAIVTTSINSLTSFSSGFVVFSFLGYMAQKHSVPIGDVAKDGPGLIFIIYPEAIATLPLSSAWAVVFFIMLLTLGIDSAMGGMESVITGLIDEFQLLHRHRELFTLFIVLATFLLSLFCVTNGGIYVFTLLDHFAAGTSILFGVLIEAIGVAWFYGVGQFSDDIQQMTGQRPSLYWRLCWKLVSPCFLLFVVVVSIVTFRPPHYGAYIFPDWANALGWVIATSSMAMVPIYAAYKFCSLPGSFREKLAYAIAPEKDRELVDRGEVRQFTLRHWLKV
pKi: −log10 of the molar value.
property_name: pKi

> print(dat)
                       smiles.string  test.result
1  COc1ccc(N(C)c2nc(C)nc3ccccc23)cc1       < 5.00

----------
system_under_test: PKC
test_method_notes: NIMH-PDSP binding affinity panel
test_settings: read-out: affinity, protein kinase C
property_name: Ki

> print(dat)
                       smiles.string  system.under.test  test.result
1  COc1ccc(N(C)c2nc(C)nc3ccccc23)cc1                PKC      > 10 µM

----------
system_under_test: α2A-2C
test_method_notes: NIMH-PDSP binding affinity panel
test_settings: read-out: affinity
pKi: −log10 of the molar value.
property_name: pKi

> print(dat)
                                   compound  test.result
1  COc1ccc(N(C)c2nc(C)nc3ccccc23)cc1 [MPC-6827]       < 5.00

----------
system_under_test: NMΔA
test_method_notes: NIMH-PDSP binding affinity panel
test_settings: read-out: affinity
pKi: −log10 of the molar value.
property_name: pKi

> print(dat)
                       smiles.string  system.under.test  test.result
1  COc1ccc(N(C)c2nc(C)nc3ccccc23)cc1               NMΔA       < 5.00

----------
system_under_test: β1–3
test_method_notes: NIMH-PDSP binding affinity panel
test_settings: read-out: affinity
pKi: −log10 of the molar value.
property_name: pKi

> print(dat)
                       smiles.string  system.under.test  property.name  test.result
1  COc1ccc(N(C)c2nc(C)nc3ccccc23)cc1               β1–3            pKi       < 5.00

----------
system_under_test: DOR (Homo sapiens, UniProt P41143)
Sequence (P41143 whole entry): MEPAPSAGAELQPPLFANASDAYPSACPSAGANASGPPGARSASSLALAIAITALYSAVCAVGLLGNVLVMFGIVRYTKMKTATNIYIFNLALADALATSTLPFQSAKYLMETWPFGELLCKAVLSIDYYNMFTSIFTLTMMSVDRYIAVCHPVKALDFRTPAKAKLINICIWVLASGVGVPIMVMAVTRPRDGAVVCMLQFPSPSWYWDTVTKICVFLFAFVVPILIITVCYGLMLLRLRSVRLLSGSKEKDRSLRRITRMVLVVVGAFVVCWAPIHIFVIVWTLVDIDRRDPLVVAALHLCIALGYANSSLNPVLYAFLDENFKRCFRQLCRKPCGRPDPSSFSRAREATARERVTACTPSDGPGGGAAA
pKi: −log10 of the molar value.
property_name: pKi

> print(dat)
                       smiles.string                   system.under.test  test.result
1  COc1ccc(N(C)c2nc(C)nc3ccccc23)cc1  DOR (Homo sapiens, UniProt P41143)       < 5.00

----------
system_under_test: PBR (Homo sapiens, UniProt P30536)
Sequence (P30536 whole entry, species assumed): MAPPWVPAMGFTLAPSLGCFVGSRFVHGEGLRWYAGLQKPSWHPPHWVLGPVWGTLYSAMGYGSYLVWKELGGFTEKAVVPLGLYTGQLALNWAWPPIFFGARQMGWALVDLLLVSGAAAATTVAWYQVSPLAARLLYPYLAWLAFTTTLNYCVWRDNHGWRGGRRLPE
property_name: Ki

> print(dat)
                       smiles.string                   system.under.test  test.result
1  COc1ccc(N(C)c2nc(C)nc3ccccc23)cc1  PBR (Homo sapiens, UniProt P30536)      > 10 µM

----------
system_under_test: KA (kainate)
test_method_notes: NIMH-PDSP binding affinity panel
test_settings: read-out: affinity
property_name: Ki

> print(dat)
                       smiles.string  test.result
1  COc1ccc(N(C)c2nc(C)nc3ccccc23)cc1      > 10 µM

----------
system_under_test: M (muscarinic)
test_method_notes: NIMH-PDSP binding affinity panel
test_settings: read-out: affinity
pKi: −log10 of the molar value.
property_name: pKi

> print(dat)
                       smiles.string  system.under.test  test.result
1  COc1ccc(N(C)c2nc(C)nc3ccccc23)cc1     M (muscarinic)       < 5.00

----------
system_under_test: NK (neurokinin)
test_method_notes: NIMH-PDSP binding affinity panel
test_settings: read-out: affinity
property_name: Ki

> print(dat)
                                   compound  property.name  test.result
1  COc1ccc(N(C)c2nc(C)nc3ccccc23)cc1 [MPC-6827]             Ki      > 10 µM

----------
system_under_test: all other tested biogenic brain receptors, transporters, enzymes, and protein targets
test_method_notes: NIMH-PDSP binding affinity panel
test_settings: all other tested targets except H4R and σ1R
pKi: −log10 of the molar value.
property_name: pKi

> print(dat)
                       smiles.string                         system.under.test  test.result
1  COc1ccc(N(C)c2nc(C)nc3ccccc23)cc1  all other tested biogenic brain receptors, transporters, enzymes, and protein targets       < 5.00

----------
system_under_test: smoothened (Homo sapiens, UniProt Q99835)
Sequence (Q99835 28-787): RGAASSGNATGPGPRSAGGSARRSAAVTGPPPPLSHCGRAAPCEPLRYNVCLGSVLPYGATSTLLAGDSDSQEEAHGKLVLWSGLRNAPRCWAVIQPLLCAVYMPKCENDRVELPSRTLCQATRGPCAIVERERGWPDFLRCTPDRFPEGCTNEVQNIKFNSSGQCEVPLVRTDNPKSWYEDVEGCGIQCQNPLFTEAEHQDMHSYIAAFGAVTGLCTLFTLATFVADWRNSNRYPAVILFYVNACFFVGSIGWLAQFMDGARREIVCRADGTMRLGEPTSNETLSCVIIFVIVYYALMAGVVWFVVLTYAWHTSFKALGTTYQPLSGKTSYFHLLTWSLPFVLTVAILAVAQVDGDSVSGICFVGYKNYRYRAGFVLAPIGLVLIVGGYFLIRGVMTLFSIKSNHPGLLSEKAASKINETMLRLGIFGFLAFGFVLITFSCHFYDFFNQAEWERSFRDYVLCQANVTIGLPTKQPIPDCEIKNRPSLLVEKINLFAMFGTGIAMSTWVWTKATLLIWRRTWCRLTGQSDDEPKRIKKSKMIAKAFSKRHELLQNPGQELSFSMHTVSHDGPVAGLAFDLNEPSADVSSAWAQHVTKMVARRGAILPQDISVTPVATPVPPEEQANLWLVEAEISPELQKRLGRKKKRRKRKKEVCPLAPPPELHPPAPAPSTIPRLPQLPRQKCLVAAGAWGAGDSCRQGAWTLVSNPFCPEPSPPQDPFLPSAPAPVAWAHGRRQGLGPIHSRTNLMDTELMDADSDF
pKi: −log10 of the molar value.
property_name: pKi

> print(dat)
                       smiles.string  test.result
1  COc1ccc(N(C)c2nc(C)nc3ccccc23)cc1       < 5.00

----------
system_under_test: Na + channel
test_method_notes: NIMH-PDSP binding affinity panel
test_settings: read-out: affinity
pKi: −log10 of the molar value.
property_name: pKi

> print(dat)
                       smiles.string  property.name  test.result
1  COc1ccc(N(C)c2nc(C)nc3ccccc23)cc1            pKi       < 5.00

----------
system_under_test: D1-D5
test_method_notes: NIMH-PDSP binding affinity panel
test_settings: read-out: affinity; D1-D5 dopamine
property_name: Ki

> print(dat)
                       smiles.string  system.under.test  test.result
1  COc1ccc(N(C)c2nc(C)nc3ccccc23)cc1              D1-D5      > 10 µM

----------
system_under_test: HERG (Homo sapiens, UniProt Q12809)
Sequence (Q12809 whole entry): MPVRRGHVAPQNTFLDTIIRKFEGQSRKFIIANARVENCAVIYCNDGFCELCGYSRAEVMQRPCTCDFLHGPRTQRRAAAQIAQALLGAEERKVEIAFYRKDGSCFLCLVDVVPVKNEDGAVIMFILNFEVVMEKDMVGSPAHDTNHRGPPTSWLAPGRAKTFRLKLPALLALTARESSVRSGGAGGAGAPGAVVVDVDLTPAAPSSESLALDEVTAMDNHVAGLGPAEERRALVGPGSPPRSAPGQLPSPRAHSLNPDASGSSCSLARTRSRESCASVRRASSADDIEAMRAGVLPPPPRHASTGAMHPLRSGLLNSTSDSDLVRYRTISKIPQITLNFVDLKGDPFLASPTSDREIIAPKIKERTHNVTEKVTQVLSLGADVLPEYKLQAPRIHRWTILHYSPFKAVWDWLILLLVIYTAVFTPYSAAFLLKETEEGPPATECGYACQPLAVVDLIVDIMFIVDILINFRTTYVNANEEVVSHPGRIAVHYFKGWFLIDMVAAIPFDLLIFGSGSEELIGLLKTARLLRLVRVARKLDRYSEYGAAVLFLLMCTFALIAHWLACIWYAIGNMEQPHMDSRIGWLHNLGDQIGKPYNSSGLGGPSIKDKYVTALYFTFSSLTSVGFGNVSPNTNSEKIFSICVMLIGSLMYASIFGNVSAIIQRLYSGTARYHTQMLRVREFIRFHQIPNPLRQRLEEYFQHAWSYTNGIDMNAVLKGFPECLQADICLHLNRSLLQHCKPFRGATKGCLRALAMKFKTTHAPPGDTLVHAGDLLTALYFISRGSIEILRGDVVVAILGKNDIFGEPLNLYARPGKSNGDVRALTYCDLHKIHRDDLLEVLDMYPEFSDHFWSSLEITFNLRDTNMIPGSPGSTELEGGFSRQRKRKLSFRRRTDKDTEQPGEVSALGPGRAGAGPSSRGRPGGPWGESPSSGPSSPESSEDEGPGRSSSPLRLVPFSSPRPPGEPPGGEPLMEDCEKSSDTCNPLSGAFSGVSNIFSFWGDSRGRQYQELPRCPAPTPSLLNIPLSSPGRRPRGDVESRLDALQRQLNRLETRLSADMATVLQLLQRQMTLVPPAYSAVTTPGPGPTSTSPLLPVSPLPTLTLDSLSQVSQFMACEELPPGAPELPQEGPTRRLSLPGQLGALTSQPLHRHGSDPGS
property_name: Ki

> print(dat)
                       smiles.string  property.name  test.result
1  COc1ccc(N(C)c2nc(C)nc3ccccc23)cc1             Ki      > 10 µM

----------
system_under_test: VMAT 1,2
test_method_notes: NIMH-PDSP binding affinity panel
test_settings: read-out: affinity; VMAT 1,2, vesicular monoamine transporter
property_name: Ki

> print(dat)
                       smiles.string  property.name  test.result
1  COc1ccc(N(C)c2nc(C)nc3ccccc23)cc1             Ki      > 10 µM
